# testedTarget: Rbe1p (Candida albicans, UniProt Q59ZX3)
# Sequence (Q59ZX3 20-271): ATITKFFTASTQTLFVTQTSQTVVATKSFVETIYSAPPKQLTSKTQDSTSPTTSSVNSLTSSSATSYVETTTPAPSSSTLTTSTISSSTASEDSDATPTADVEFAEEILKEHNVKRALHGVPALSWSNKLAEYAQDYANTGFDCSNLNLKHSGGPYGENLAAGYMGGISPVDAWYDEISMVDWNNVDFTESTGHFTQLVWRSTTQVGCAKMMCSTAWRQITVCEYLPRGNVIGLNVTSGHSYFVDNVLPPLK
pKd: −log10 of the molar value.
resultType: pKd

So what does the record say about pKd for CC(C)CCC[C@@H](C)[C@H]1CC[C@H]2[C@@H]3CC=C4C[C@@H](O)CC[C@]4(C)[C@H]3CC[C@]12C ?
~5.24

---

# testedTarget: Rbt4p (Candida albicans)
# Sequence (Q5AB48 20-358): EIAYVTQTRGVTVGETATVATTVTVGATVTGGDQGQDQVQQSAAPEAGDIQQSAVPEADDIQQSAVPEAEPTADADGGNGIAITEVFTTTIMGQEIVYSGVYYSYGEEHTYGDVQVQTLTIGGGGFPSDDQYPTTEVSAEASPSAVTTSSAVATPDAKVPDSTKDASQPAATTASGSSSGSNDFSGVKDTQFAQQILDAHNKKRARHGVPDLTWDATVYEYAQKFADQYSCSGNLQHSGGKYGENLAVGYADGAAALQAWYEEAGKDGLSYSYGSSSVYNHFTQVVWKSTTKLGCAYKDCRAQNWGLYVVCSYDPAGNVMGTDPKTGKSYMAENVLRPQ
pKd: −log10 of the molar value.
resultType: pKd

So what does the record say about pKd for CC(C)CCC[C@@H](C)[C@H]1CC[C@H]2[C@@H]3CC=C4C[C@@H](O)CC[C@]4(C)[C@H]3CC[C@]12C [cholesterol] ?
~5.48
